Assay: Oral bioavailability and pharmacokinetic study in mice
Assay type: in vivo, female CD1 mice
Settings: female, CD1, mouse, in vivo, iv, 1 mg/kg
Reported metric: Vd
Could you kindly put the unit after your number?

Prompt: Requested read-out: Vd. Entry: COc1ccc(Cn2[se]c3ccccc3c2=O)cn1 [MR6-26-2]
Response: 1.37 L/kg

---

Experiment: Oral bioavailability and pharmacokinetic study in mice
Type: in vivo, female CD1 mice
Conditions: female, CD1, mouse, in vivo, po, 30 mg/kg
Reported metric: half-life (h)
Unit h implied. Number only.

Prompt: Fill in the blank: the reported half-life of COc1ccc(Cn2[se]c3ccccc3c2=O)cn1 [MR6-26-2] is ____.
Response: 1.5
